- Species: Rattus norvegicus
- experimentSummary: DrugMatrix - Regimen: Daily Repeat
- Format: toxicity, organism-based, Sprague-Dawley
- Parameters: regimen Daily Repeat, gender Male, age 6-8 weeks
- settings: in vivo, po, 0 mg/kg, 120 h, tissue Plasma, route oral GAVAGE, dose level Control, time 5 day, vehicle .5 % CMC
endpoint: PHOSPHORUS
Answer with the number, then the unit.

> print(dat)
                                   compound  experimentalvalue
1   COc1ccccc1[N+](=O)[O-] [2-NITROANISOLE]        13.02 mg/dL
2  C#C[C@]1(O)CC[C@H]2[C@@H]3CCC4=CC(=O)CC[C@]4(C)[C@H]3CC[C@@]21C [ETHISTERONE]        12.07 mg/dL
3  CCn1cc(C(=O)O)c(=O)c2cc(F)c(N3CCNC(C)C3)c(F)c21 (stereo not given) [LOMEFLOXACIN]        10.05 mg/dL

Param item = CN(C)C(=O)C(CCN1CCC(O)(c2ccc(Cl)cc2)CC1)(c1ccccc1)c1ccccc1 [LOPERAMIDE] ; retrieve measured PHOSPHORUS.
12.3 mg/dL

Also CCC1=C(C)CN(C(=O)NCCc2ccc(S(=O)(=O)NC(=O)N[C@H]3CC[C@H](C)CC3)cc2)C1=O [GLIMEPIRIDE] ?
12.3 mg/dL
